system-tested: T1, IL-23-AVI (human, UniProt Q9NPF7 20-189; P29460 23-328)
T1 construct: IL-23 p19 subunit, human; IL-12/IL-23 p40 subunit, human; Captured on streptavidin chips and beads, so biotinylation of the Avi tag is implied; also called Avi-tagged IL-23; recombinant IL-23
T1 sequence (looked up) 1: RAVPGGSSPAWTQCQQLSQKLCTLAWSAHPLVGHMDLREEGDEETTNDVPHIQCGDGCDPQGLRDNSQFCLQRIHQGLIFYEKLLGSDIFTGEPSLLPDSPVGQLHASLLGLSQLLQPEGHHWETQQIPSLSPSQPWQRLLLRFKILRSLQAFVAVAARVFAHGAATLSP
T1 sequence (looked up) 2: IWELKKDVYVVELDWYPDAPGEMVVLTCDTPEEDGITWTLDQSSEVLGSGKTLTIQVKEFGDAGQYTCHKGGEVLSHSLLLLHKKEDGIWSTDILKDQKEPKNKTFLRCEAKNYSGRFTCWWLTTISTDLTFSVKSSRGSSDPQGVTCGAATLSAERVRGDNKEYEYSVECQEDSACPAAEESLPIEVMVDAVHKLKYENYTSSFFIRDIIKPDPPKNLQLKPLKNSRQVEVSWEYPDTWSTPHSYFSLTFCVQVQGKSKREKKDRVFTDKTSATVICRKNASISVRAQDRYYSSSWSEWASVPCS
method-description: SPR; Biacore T200, 25°C, 50 μl/min; 2000–9000 RU of IL-23-AVI captured to streptavidin chip, peptides as analyte (3-fold series, up to 30 μM); 10 mM HEPES pH 7.5, 150 mM NaCl, 0.005% P20, 3% DMSO; multi-cycle, single cycle kinetics for 23–652; 1:1 model; n = 1
condition: both partners purified
assay-metric: koff (s⁻¹)
Report only the number, with the unit s⁻¹ understood.

Would you please look over these solved cases?
• GLRERCVRNYGHEFCQNWYW (selected from a peptide phage library against IL-23; Two cysteines; source: synthetic peptide (CPC Scientific)) [peptide 23–446 (free, chemically synthesized)] = 0.0863
• HVPDPCWFGLLCDVLNS (selected from a peptide phage library against IL-23; Two cysteines; also called FGL-containing peptide; source: synthetic peptide (CPC Scientific)) [peptide 23–644 (free, chemically synthesized)] = 0.129
• DTLTKSFCYFGTWCQMYGST (selected from a peptide phage library against IL-23; Two cysteines; also called FGLT-containing peptide; FGL-containing peptide; source: synthetic peptide (CPC Scientific)) [peptide 23–652 (free, chemically synthesized)] = 0.00263

Query: Given the binder QKITQCVYIIWTYPCLLNDV (selected from a peptide phage library against IL-23; Two cysteines; source: synthetic peptide (CPC Scientific)) [peptide 23–441 (free, chemically synthesized)] , what is its reported koff?
Reply: 0.174

Query: Given the binder FTKEIDSWWLSLMSS (selected from a peptide phage library against IL-23; No cysteines, 15 residues; source: synthetic peptide (CPC Scientific)) [peptide 23–437 (free, chemically synthesized)] , what is its reported koff?
Reply: 1.86
